Experiment: RP, Waters ACQUITY UPLC BEH C18, 50 × 2.1 mm, 1.7 µm, 35 °C, 0.25 mL/min, estimated dead time 0.44 min; A: water + 0.1% acetic acid, pH 3; B: acetonitrile; gradient (min/%B) 0/5 1.12/5 6.41/99.5 10.01/99.5
Conditions: stereoisomer not certain
Quick list: LC retention time per entry.
Give just the number in min; leave the unit off.

Known LC retention time results, listed for orientation:
{"columns": ["MOLECULE", "MEASURED_RESULT"],
 "data": [
  ["O=C(O)CCCCCCCC(=O)O", 5],
  ["O=S(=O)([O-])Oc1c[nH]c2ccccc12.[K+]", 2],
  ["NC(Cc1c[nH]c2ccccc12)C(=O)O (stereo not given)", 1],
  ["NC(=O)CCC(NC(=O)Cc1ccccc1)C(=O)O (stereo not given)", 2]
]}

Let us examine a further case.
Q) Supply LC retention time value. Item: `CCCCCCCCCC(=O)O`
A) 10
